Below is a list of entries, each paired with its recorded Mean % WT Binding value.
- testTarget: human CD33 N20E (human, UniProt P20138 18-364)
- Sequence (P20138 18-364 N20E limits assumed): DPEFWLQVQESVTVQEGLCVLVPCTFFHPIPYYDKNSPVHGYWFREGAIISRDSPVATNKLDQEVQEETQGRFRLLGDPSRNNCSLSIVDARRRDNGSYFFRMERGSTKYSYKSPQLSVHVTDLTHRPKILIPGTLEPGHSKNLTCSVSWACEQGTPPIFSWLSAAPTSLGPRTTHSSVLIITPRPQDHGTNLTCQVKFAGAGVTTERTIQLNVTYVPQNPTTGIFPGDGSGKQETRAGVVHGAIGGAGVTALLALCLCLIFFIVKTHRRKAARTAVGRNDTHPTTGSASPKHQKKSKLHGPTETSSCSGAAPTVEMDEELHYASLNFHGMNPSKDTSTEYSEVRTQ
- assayExplanation: flow cytometry, mutant on cells, IgG
attributeMeasured: Mean % WT Binding (% WT binding)

binder	attributeMeasured	measurementUnit	observedValue
Refmab #2 (antibody, human IgG1, V domains shown, Tested in IgG format; human IgG1 Fc silent (PG-LALA)) VH: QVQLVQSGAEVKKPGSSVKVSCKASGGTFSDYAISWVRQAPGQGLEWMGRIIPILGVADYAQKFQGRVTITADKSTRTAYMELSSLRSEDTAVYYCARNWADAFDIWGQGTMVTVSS VL: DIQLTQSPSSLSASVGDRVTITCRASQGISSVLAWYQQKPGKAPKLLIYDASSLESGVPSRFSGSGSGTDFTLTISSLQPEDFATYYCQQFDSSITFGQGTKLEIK	Mean % WT Binding	% WT binding	120
Refmab #3 (antibody, human IgG1, V domains shown, Tested in IgG format; human IgG1 Fc silent (PG-LALA)) VH: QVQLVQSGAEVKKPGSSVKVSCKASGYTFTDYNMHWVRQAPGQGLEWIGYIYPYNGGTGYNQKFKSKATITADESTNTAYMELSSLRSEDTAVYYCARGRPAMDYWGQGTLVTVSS VL: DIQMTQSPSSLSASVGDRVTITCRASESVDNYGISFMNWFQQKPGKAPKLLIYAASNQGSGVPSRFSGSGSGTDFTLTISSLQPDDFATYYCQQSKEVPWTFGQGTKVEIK	Mean % WT Binding	% WT binding	0.5
Refmab #1 (antibody, human IgG1, V domains shown, Tested in IgG format; human IgG1 (Absolute Antibody hP67.6, Cat. No. Ab00283-10.0); also called hP67.6) VH: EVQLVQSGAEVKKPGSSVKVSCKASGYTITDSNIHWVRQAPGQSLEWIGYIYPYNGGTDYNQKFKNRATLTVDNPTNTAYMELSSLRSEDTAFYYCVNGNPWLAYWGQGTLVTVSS VL: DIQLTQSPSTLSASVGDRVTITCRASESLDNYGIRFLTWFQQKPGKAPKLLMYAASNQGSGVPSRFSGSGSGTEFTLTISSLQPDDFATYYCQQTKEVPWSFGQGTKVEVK	Mean % WT Binding	% WT binding	0.3
Refmab #4 (antibody, human IgG1, V domains shown, Tested in IgG format; human IgG1 Fc silent (PG-LALA)) VH: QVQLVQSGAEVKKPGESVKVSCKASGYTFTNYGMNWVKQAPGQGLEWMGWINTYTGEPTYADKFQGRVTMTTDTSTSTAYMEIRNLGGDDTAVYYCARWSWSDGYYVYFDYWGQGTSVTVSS VL: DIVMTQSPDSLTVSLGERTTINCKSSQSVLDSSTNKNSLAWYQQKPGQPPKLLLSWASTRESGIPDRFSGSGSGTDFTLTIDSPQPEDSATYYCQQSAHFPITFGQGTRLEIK	Mean % WT Binding	% WT binding	100
